System: Pseudomonas fluorescens HPPD polypeptide (wild-type and mutants)
Experiment: Coupled HPPD activity assay: turnover and residual turnover in crude HPPD polypeptide extracts with and without Cmpd. 1
Assay type: biochemical
Conditions: 100 μM Cmpd. 1, normalised to turnover without inhibitor
Description: For the generation of crude HPPD polypeptide extract in micro titer plates (MTP) for the determination of residual activity in inhibition assays, cells were grown in 40 or 150 μl LB medium containing 1% Glucose (Merck, Darmstadt, Germany) and 100 μg/ml ampicillin in a standard 96 well plate (Thermo Fisher Scientific, Waltham, USA) incubated for about 18 h in a humidity incubator at 37° C. […]
MEASURED_PROPERTY: Residual turnover [%] (%)
Report the figure in % without appending any unit label.

-- ask I would be grateful if you could share the reported Residual turnover [%] for SEQ ID NO:68 (protein, mutant HPPD polypeptide) MADLYENPMGLMGFEFIEFASPTPGTLEPIFEIMGFTKVATHRSKNVHLYRQGEINLILNNEPNSIASYFAAEHGPSVCGMAFRVKDSQKAYNRALELGAQPIHIDTGPMELNLPAIKGIGGAPLYLIDRFGEGSSIYDIDFVYLEGVERNPVGAGLKVIDHLTHNVYRGRMVYWANFYEKLFNFREARYFDIKGEYTGLTSKAMSAPDGMIKIALNEESSKGAGQIEEFLMQFNGEGIQHVAFLTDDLVKTWDALKKIGMRFLTAPGDEYYEMLEGRLPDHGEPVDQLQARGILLDGSSVEGDKRLLLQIFSEQLMGPVFFEFIQRKGDDGFGPDSFKVLFEQIERDQVRRGVLTAD .
-- reply 74

Just for reference, patent US11371056B2 is where these values come from.
